- assayed.system: rat albumin (rat, UniProt P02770 25-608)
- Sequence (P02770 25-608 limits assumed): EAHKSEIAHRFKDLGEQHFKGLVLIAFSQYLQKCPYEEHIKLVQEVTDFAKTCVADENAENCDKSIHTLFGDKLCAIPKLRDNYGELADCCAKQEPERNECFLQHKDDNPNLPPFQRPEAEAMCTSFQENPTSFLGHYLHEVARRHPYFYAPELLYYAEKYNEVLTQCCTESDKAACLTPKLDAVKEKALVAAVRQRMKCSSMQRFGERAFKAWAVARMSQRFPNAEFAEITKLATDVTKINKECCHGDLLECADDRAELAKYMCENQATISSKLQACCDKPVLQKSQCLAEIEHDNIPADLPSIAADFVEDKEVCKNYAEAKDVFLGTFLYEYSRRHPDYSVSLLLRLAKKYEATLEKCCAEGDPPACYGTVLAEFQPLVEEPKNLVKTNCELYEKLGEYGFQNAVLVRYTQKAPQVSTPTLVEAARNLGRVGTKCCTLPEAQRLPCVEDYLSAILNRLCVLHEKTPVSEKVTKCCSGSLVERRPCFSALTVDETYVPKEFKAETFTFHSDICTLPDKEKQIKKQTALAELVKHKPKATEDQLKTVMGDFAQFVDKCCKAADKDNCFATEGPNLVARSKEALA
- assay.name: phage ELISA
value.type: binding result

Below, each entry is followed by its recorded binding result result.
[[record]]
binder = "LAEMCYFPGICWMSA (phage clone, Library HBC) [HBC-H7]"
observed_value = "no binding"

[[record]]
binder = "SYAPCYFPGICWMGN (phage clone, Library HBC) [HBC-H8]"
observed_value = "no binding"

[[record]]
binder = "KTEICYFPGICWMSG (phage clone, Library HBC) [HBC-H15]"
observed_value = "no binding"

[[record]]
binder = "TTEMCYFPGICWKTE (phage clone, Library HBC) [HBC-H14]"
observed_value = "no binding"

[[record]]
binder = "MEPSRSVCYAEGICFDRGEQ (phage clone, Library HB) [HB-H8]"
observed_value = "no binding"

[[record]]
binder = "HAEICYFPGICWTER (phage clone, Library HBC) [HBC-H17]"
observed_value = "no binding"


Next up:
-- ask Report binding result for GTEVCYFPGICWGGG (phage clone, Library HBC) [HBC-H3] please.
-- reply no binding

The reported measurements were obtained from patent US20040253247A1.
